- System: SNB-19 CNS
- Assay notes: NCI tumour cell line growth inhibition, 48 h
Criterion: TGI meeting or surpassing 30 µM. Met: true. Not met: false.

[[record]]
compound = "COc1cc(/C=C/c2cc(/C=C/c3ccc(O)c(OC)c3)n(-c3c(C)cccc3C)c(=O)n2)ccc1O"
class_name = "false"

[[record]]
compound = "C=C1C[C@](OC)([C@H](O)C(=O)N[C@@H](OC)[C@@H]2C[C@@H](O)C(C)(C)[C@@H](C[C@@H](COC)OC)O2)O[C@H](C)[C@@H]1C"
class_name = "false"

[[record]]
compound = "CCCCCNc1nonc1N"
class_name = "true"

[[record]]
compound = "C=C(C)[C@@H]1CC[C@]2(C)[C@H](C(=O)C=C3[C@@H]4C[C@](C)(C(=O)N5CCN(C)CC5)CC[C@]4(C)CC[C@]32C)[C@@]1(C)CCC#N"
class_name = "false"

[[record]]
compound = "NC(N)=NS(=O)(=O)c1ccc(NCc2c3ccccc3nc3ccccc23)cc1"
class_name = "false"

[[record]]
compound = "O=C1/C(=C\\c2cccc(Oc3ccccc3)c2)S(=O)(=O)C(c2ccccc2)N1c1ccc(Cl)cc1 (centres undefined)"
class_name = "true"

[[record]]
compound = "CCCCC(C)C1CCC2(C)C=CC(=O)C(C)=C2C1O (centres undefined)"
class_name = "true"

[[record]]
compound = "CS(=O)CCCCCN=C=S (centres undefined)"
class_name = "true"

[[record]]
compound = "CC1(C)CC(=O)C2=C(C1)c1c(ccc3ccccc13)NC2c1cn(Cc2ccc(Cl)cc2)c2ccccc12 (centres undefined)"
class_name = "true"

[[record]]
compound = "CN(C)c1ccc(C(=C2C=CC(=[N+](C)C)C=C2)c2ccc(N(C)C)cc2)cc1 (tested in a mixture with another compound)"
class_name = "false"

[[record]]
compound = "Clc1ccc(Oc2ccc(N=Cc3ccc(Cl)cc3Cl)cc2Cl)cc1"
class_name = "true"

[[record]]
compound = "CN(C)c1ccc(/C=C(\\C#N)C(N)=C(C#N)C#N)cc1"
class_name = "true"

[[record]]
compound = "CCCCCCCCCCCCCCCCCC1=NCCN1CS(=O)(=O)O"
class_name = "true"

[[record]]
compound = "CCN(CC)c1cc(/C=C/c2ccc(OC)c(OC)c2)nc2cc(F)c(F)cc12"
class_name = "false"

[[record]]
compound = "COC(=O)C(CCCC1(c2ccccc2)OCCO1)C(C)=O (centres undefined)"
class_name = "true"

[[record]]
compound = "Cc1ccc(NC(=O)c2cccc([N+](=O)[O-])c2O)c([N+](=O)[O-])c1"
class_name = "true"

[[record]]
compound = "CC1=CC(=O)CCC2(C)C1CC[C@@H]2OC=O (some centres undefined)"
class_name = "true"

[[record]]
compound = "CCCc1c(OC)c(=O)c2c(OC)cc(OC)c3c4c(OC)cc(OC)c5c(=O)c(OC)c(CCC)c(c1c23)c54"
class_name = "true"

